Every entry's value here was drawn from paper PMC9607330.

Recorded measurements of melting point, one per entry

Use these answered entries as a reference point.
INSERT INTO results (compound, experimental_result) VALUES
  ('COc1ccc(NC(=O)CSc2nnc(Cn3c(-c4ccc(Cl)cc4Cl)nc4ccccc43)o2)cc1 [Compound 16]', '195 to 197 °C'),
  ('O=C(CSc1nnc(Cn2c(-c3ccc(Cl)cc3Cl)nc3ccccc32)o1)Nc1ccc(F)cc1F [Compound 14]', '212 to 214 °C');

Qu. Value lookup for melting point; key = Clc1ccc(-c2nc3ccccc3n2Cc2nnc(SCc3cn(-c4cccc(Br)c4)nn3)o2)c(Cl)c1 [Compound 9]
Ans. 180 to 182 °C

Qu. Value lookup for melting point; key = Cc1ccccc1-n1cc(CSc2nnc(Cn3c(-c4ccc(Cl)cc4Cl)nc4ccccc43)o2)nn1 [Compound 11]
Ans. 152 to 153 °C

Qu. Value lookup for melting point; key = Fc1ccc(-n2cc(CSc3nnc(Cn4c(-c5ccc(Cl)cc5Cl)nc5ccccc54)o3)nn2)cc1 [Compound 8]
Ans. 110 to 112 °C

Qu. Value lookup for melting point; key = COC(=O)c1ccccc1NC(=O)CSc1nnc(Cn2c(-c3ccc(Cl)cc3Cl)nc3ccccc32)o1 [Compound 17]
Ans. 176 to 178 °C

Qu. Value lookup for melting point; key = O=C(CSc1nnc(Cn2c(-c3ccc(Cl)cc3Cl)nc3ccccc32)o1)Nc1ccc(Br)cc1 [Compound 15]
Ans. 220 to 222 °C

Qu. Value lookup for melting point; key = Clc1ccc(-c2nc3ccccc3n2Cc2nnc(SCc3cn(-c4ccc(Cl)cc4Cl)nn3)o2)c(Cl)c1 [Compound 12]
Ans. 100 to 102 °C

====

Recorded measurements of IC50, one per entry
Test system: A549 cells
ASSAY OVERVIEW: MTT antiproliferative assay, A549
Type: cell-based, human
CONDITION SET: Homo sapiens; MTT, A549 (lung); mean ± SD of three experiments
Report the value in µM with no unit label.

Use these answered entries as a reference point.
INSERT INTO measurements (molecule, readout_type, value_unit, experimental_result) VALUES
  ('O=C(CSc1nnc(Cn2c(-c3ccc(Cl)cc3Cl)nc3ccccc32)o1)Nc1ccc(F)cc1F', 'IC50', 'µM', 11.6),
  ('Cc1ccccc1-n1cc(CSc2nnc(Cn3c(-c4ccc(Cl)cc4Cl)nc4ccccc43)o2)nn1', 'IC50', 'µM', 43.8),
  ('O=C(CSc1nnc(Cn2c(-c3ccc(Cl)cc3Cl)nc3ccccc32)o1)Nc1ccc(Br)cc1', 'IC50', 'µM', 20.6);

Qu. Value lookup for IC50; key = COc1cccc2c1C(=O)c1c(O)c3c(c(O)c1C2=O)C[C@@](O)(C(=O)CO)C[C@@H]3O[C@H]1C[C@H](N)[C@H](O)[C@H](C)O1 [doxorubicin, reference compound]
Ans. 5.85

Qu. Value lookup for IC50; key = `COc1ccc(NC(=O)CSc2nnc(Cn3c(-c4ccc(Cl)cc4Cl)nc4ccccc43)o2)cc1`
Ans. 7.83

Qu. Value lookup for IC50; key = `Fc1ccc(-n2cc(CSc3nnc(Cn4c(-c5ccc(Cl)cc5Cl)nc5ccccc54)o3)nn2)cc1`
Ans. 26.7

Qu. Value lookup for IC50; key = `Clc1ccc(-c2nc3ccccc3n2Cc2nnc(SCc3cn(-c4cccc(Br)c4)nn3)o2)c(Cl)c1`
Ans. 17.4

Qu. Value lookup for IC50; key = `Clc1ccc(-c2nc3ccccc3n2Cc2nnc(SCc3cn(-c4ccc(Cl)cc4Cl)nn3)o2)c(Cl)c1`
Ans. 37.1
